# Tested on: Escherichia coli
# MEASUREMENT_PROTOCOL: Antibacterial activity against Escherichia coli D22 CGSG 5163 harboring Ips mutant after 16 to 20 hrs by broth microdilution method
# Assay type: functional
Collected MIC values appear next to each entry.

Here is how some compounds turned out for MIC.
| CHEMICAL_SMILES | MIC |
| --- | --- |
| CCCCCCC#Cc1cncc(C(=O)N[C@@H](CCCN)C(=O)N[C@H](C(=O)N[C@@H](C)C(=O)N[C@H]2Cc3cn(nn3)CCO[C@@H]3C[C@@H]4OB(O[C@@H]4C3)[C@H](C)NC2=O)[C@@H](C)O)c1 | > 64 µg/mL |
| C[C@@H]1NC(=O)[C@@H](NC(=O)[C@H](C)NC(=O)[C@@H](NC(=O)[C@H](CCCN)NC(=O)c2ccc(=O)n(-c3ccccc3)c2)[C@@H](C)O)Cc2cn(nn2)CCO[C@@H]2C[C@@H]3OB1O[C@@H]3C2 | > 64 µg/mL |

Could you now look at the following compound, please?
Param request: MIC | system Escherichia coli | item `C[C@@H]1NC(=O)[C@@H](NC(=O)[C@H](C)NC(=O)[C@@H](NC(=O)[C@H](CCCN)NC(=O)C#Cc2ccc(-c3ccccc3)cc2)[C@@H](C)O)Cc2cn(nn2)CCO[C@@H]2C[C@@H]3OB1O[C@@H]3C2`
> 64 µg/mL

---

Collected Activity values appear next to each entry.
# TESTED_SYSTEM: Signal peptidase I (Escherichia coli K-12) (UniProt P00803)
# Sequence (P00803 whole entry): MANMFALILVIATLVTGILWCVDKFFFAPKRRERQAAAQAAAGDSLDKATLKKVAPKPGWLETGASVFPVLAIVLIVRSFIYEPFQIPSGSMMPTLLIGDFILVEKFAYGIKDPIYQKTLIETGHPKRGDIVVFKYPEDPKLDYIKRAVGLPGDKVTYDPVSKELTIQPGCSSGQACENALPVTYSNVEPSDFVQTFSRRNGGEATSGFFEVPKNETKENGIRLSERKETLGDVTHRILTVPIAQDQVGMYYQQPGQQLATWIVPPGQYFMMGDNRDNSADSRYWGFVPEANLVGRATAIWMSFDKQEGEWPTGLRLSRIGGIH
# MEASUREMENT_PROTOCOL: Inhibition of Escherichia coli type 1 signal peptidase lepB assessed as residual activity at 10 uM preincubated for 10 mins followed by Dabcyl-VGGTATAYGAFSRPGLE-(EDANS)-OH substrate addition measured after 2 hrs by FRET based assay (reference value: 100%)
Square brackets hold non-standard residues; d marks the D form. Peptide text beside a SMILES is read from it. * marks the point of attachment. Benzoyl(4-(4-hexylphenyl)) = CCCCCCc1ccc(-c2ccc(C(=O)*)cc2)cc1; X1 = C[C@H](N*)B1OC2C[C@@H]3C[C@@H](C3(C)C)[C@]2(C)O1; boroAla = C[C@H](N*)B(O)O; Orn = NCCC[C@H](N)C(=O)O
Expressed in %, but write only the number.

Here is how some compounds turned out for Activity.
| COMPOUND | READOUT_UNIT | MEASURED_NUMBER |
| --- | --- | --- |
| C[C@@H]1NC(=O)[C@@H](NC(=O)[C@H](C)NC(=O)[C@@H](NC(=O)[C@H](CCCN)NC(=O)c2ccc(=O)n(-c3ccccc3)c2)[C@@H](C)O)Cc2cn(nn2)CCO[C@@H]2C[C@@H]3OB1O[C@@H]3C2 | % | 10.4 |
| CCCCCCc1ccc(-c2ccc(C(=O)N[C@@H](CCCN)C(=O)N[C@H](C(=O)N[C@@H](C)C(=O)N[C@@H](CC(N)=O)C(=O)N[C@@H](C)B3OC4C[C@@H]5C[C@@H](C5(C)C)[C@]4(C)O3)[C@@H](C)O)cc2)cc1 (stereo partly specified) ({Benzoyl(4-(4-hexylphenyl))}-[Orn]TAN-X1) | % | 6.3 |
| CCCCCCc1ccc(-c2ccc(C(=O)N[C@@H](CCCN)C(=O)N[C@H](C(=O)N[C@@H](C)C(=O)N[C@H]3Cc4cn(nn4)CCN4C[C@@H]5OB(O[C@@H]5C4)[C@H](C)NC3=O)[C@@H](C)O)cc2)cc1 | % | 17.8 |

Return reported Activity. Input compound: CCCCCCc1ccc(-c2ccc(C(=O)N[C@@H](CCCN)C(=O)N[C@H](C(=O)N[C@@H](C)C(=O)N[C@@H](CC(N)=O)C(=O)N[C@@H](C)B(O)O)[C@@H](C)O)cc2)cc1 ({Benzoyl(4-(4-hexylphenyl))}-[Orn]TAN-boroAla)
5.8

Return reported Activity. Input compound: `CCCCCCc1ccc(-n2cc(C(=O)N[C@@H](CCCN)C(=O)N[C@H](C(=O)N[C@@H](C)C(=O)N[C@H]3Cc4cn(nn4)CCO[C@@H]4C[C@@H]5OB(O[C@@H]5C4)[C@H](C)NC3=O)[C@@H](C)O)ccc2=O)cc1`
17

Return reported Activity. Input compound: `CCCCCCc1ccc(-c2c[nH]c3ccc(C(=O)N[C@@H](CCCN)C(=O)N[C@H](C(=O)N[C@@H](C)C(=O)N[C@H]4Cc5cn(nn5)CCO[C@@H]5C[C@@H]6OB(O[C@@H]6C5)[C@H](C)NC4=O)[C@@H](C)O)cc23)cc1`
-19.8

Reference source for all entries: ChEMBL document CHEMBL4270642
